A set of molecules tested on HCT-15, with measured GI50:

>  <Molecule>
Brc1cc2c(cc1C1SCCS1)OCO2

>  <GI50>
> 100 µM

$$$$

List the reported GI50 of each molecule below.
1. CCCCN1C=CN2c3nc4cc(C)c(C)cc4n3C(C(=O)OC)=C(C(=O)OC)C12 (centres undefined)
2. CCOC(=O)/C(C#N)=C(N)/C(=N\Nc1cccc(C(F)(F)F)c1)C(=O)OCC
3. CCO/C=C1\SC(=S)N(c2ccc(OCC)cc2)C1=O
4. OC1C[C@H](c2ccccc2)C2(C(O)c3ccccc3C2O)[C@@H](c2ccccc2)C1 (some centres undefined)
5. C=CCOc1ccc(C2c3c(n[nH]c3O)CC(O)(OCC)C2C(=O)OCC)cc1OC (centres undefined)
6. COc1ccc(-c2cc(N3CCN(c4ccc(Cl)cc4)CC3)c(C#N)c(=O)o2)cc1
7. COC(=O)/C(C#N)=C1\NC(=O)CC(c2ccccc2)C1C#N (centres undefined)
8. COc1ccc(Cn2c(C)nc3c2C(=O)c2ccccc2C3=O)cc1

1. > 100 µM
2. > 100 µM
3. 72.4 µM
4. > 100 µM
5. > 100 µM
6. 40.7 µM
7. > 100 µM
8. 1.72 µM
